Each entry below carries its reported pIC50.
- study.target: p110δ/p85α (Homo sapiens, UniProt O00329)
- Sequence (O00329 whole entry): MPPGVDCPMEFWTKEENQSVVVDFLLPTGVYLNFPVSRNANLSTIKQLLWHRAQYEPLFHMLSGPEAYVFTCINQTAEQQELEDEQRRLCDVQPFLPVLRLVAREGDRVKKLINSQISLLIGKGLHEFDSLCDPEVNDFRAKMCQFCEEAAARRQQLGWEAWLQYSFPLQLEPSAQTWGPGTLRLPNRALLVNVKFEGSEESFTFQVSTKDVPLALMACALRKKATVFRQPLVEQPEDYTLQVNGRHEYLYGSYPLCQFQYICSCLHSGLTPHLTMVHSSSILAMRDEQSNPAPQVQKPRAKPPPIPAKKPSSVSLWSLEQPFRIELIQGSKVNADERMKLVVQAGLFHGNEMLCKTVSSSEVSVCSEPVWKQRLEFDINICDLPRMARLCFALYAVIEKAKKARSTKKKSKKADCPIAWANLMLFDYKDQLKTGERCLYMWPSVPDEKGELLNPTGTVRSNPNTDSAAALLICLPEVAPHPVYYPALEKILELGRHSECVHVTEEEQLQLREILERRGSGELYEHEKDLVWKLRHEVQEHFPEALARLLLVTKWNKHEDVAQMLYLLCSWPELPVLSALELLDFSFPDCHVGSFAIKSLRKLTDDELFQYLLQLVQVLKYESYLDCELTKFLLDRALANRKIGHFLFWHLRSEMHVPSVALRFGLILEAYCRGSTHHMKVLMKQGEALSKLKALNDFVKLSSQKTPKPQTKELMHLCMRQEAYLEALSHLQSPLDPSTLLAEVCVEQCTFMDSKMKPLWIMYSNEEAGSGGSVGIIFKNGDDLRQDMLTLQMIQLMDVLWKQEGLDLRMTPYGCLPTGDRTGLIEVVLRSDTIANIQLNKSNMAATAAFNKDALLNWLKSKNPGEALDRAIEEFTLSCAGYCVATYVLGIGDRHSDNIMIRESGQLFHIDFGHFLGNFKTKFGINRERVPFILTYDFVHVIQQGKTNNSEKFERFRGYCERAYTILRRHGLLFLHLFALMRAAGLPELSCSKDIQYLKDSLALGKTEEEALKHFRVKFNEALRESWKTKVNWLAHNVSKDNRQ
- Sequence (P27986 whole entry partner): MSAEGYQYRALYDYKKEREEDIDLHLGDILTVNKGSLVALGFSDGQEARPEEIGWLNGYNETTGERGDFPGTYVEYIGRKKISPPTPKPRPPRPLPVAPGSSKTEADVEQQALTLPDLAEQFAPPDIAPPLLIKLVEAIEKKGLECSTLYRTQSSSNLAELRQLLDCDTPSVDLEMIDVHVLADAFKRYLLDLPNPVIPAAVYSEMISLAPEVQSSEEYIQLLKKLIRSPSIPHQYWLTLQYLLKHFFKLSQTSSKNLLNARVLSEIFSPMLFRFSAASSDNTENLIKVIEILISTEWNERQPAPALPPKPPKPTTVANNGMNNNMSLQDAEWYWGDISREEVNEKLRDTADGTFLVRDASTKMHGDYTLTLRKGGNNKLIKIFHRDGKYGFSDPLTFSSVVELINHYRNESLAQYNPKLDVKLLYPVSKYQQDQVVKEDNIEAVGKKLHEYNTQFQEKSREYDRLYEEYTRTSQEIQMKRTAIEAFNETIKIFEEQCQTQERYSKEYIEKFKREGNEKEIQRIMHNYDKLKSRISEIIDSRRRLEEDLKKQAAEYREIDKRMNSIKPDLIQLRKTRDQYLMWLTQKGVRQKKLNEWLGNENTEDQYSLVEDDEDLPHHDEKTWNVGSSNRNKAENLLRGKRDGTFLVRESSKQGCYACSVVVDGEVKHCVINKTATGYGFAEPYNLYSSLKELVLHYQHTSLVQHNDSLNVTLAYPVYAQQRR
- measurement.protocol: Transcreener KINASE Assay, kinase inhibition of p110δ/p85α
- conditions.used: read-out: PI3Kδ IC50
pIC50: −log10 of the molar value.

| molecule | pIC50 |
| --- | --- |
| N#Cc1c[nH]c2ncnc(N3C[C@H](F)C[C@H]3c3nn4ccc(Cl)c4c(=O)n3-c3ccccc3)c12 | 8.40 |
| O=c1c2c(Cl)ccn2nc([C@@H]2CCCN2c2ncnc3[nH]cnc23)n1-c1cccc(F)c1 | 8.52 |
| CC(=O)c1cnc(N)nc1N1CC[C@H]1c1nn2ccc(C(F)(F)F)c2c(=O)n1-c1ccccc1 | 7.66 |
| N#Cc1ccc(-c2n[nH]c3ncnc(N4CC[C@H]4c4nn5ccc(Cl)c5c(=O)n4-c4ccccc4)c23)cn1 | 8.40 |
| CC(=O)c1c[nH]c2ncnc(N3CC(=O)C[C@H]3c3nn4ccc(Cl)c4c(=O)n3-c3ccccc3)c12 | 7.17 |
| C[S+]([O-])c1c[nH]c2ncnc(N3CCC[C@H]3c3nn4ccc(Cl)c4c(=O)n3-c3cccc(F)c3)c12 (stereo partly shown) [Compound 198] | 9.00 |
| N#Cc1c[nH]c2ncnc(N3CCC[C@H]3c3nn4ccc(Cl)c4c(=O)n3-c3ccccc3)c12 | 9.00 |

----------
- study.target: p110β/p85α (Homo sapiens)
- Sequence (P42338 whole entry): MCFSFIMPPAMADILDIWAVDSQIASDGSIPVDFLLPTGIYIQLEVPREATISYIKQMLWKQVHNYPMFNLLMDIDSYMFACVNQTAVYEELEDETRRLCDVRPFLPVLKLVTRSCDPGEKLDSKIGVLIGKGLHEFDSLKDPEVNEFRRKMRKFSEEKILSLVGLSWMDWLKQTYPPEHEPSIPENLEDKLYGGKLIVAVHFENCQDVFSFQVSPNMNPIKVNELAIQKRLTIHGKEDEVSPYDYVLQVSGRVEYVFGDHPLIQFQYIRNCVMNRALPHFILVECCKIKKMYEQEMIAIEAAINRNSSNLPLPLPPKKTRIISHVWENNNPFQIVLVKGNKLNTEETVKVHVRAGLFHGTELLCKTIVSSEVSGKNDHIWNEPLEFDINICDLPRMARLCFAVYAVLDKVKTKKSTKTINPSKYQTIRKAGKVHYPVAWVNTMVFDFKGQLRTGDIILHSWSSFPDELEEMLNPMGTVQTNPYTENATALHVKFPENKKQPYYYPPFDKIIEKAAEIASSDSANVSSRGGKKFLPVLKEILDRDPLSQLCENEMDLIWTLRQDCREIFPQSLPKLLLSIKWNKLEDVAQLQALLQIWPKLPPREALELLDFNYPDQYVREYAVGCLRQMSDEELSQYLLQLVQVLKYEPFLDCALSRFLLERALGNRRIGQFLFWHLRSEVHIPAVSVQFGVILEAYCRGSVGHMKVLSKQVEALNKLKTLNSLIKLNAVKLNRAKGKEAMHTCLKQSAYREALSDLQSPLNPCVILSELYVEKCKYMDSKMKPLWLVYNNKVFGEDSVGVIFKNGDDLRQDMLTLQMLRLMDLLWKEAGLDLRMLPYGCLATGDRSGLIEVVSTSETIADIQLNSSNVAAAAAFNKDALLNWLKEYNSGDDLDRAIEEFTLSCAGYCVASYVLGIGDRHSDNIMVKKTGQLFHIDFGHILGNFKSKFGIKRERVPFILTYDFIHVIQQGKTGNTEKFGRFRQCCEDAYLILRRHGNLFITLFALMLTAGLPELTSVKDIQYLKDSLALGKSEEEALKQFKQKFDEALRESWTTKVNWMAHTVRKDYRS
- Sequence (P27986 2-724 partner): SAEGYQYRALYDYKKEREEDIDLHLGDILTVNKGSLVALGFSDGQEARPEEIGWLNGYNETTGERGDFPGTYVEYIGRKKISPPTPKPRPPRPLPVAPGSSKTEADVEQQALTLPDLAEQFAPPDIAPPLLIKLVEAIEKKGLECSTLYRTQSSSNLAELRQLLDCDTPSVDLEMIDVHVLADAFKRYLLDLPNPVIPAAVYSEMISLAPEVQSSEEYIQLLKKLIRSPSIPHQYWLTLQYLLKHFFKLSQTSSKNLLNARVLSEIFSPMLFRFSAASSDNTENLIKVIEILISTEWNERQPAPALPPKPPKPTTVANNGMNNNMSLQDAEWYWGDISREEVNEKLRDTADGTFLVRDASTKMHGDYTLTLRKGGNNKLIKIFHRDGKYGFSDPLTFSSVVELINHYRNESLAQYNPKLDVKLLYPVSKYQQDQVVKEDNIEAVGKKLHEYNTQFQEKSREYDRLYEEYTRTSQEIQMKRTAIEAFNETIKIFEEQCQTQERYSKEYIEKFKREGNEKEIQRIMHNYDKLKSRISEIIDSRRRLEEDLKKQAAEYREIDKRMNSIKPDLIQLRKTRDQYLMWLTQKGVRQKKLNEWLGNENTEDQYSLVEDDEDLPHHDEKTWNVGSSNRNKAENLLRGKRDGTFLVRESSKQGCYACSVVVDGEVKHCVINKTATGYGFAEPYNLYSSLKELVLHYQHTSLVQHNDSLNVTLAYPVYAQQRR
- measurement.protocol: Transcreener KINASE Assay, kinase inhibition of p110β/p85α
- conditions.used: read-out: PI3Kβ IC50
Just a reminder that ties go to NOT MET: only IC50 strictly below 100 nM counts as MET.

| compound | category.label |
| --- | --- |
| CS(=O)(=O)[C@H]1C[C@@H](c2nn3ccc(Cl)c3c(=O)n2-c2ccccc2)N(c2ncnc3[nH]cnc23)C1 | NOT MET |
| CC(Nc1ncnc2[nH]cnc12)c1cc2ccc(Cl)n2c(=O)n1-c1cccc(F)c1 (stereo not drawn) | NOT MET |
| CC(=O)c1cnc(N)nc1N1CCC[C@H]1c1nn2ccc(Cl)c2c(=O)n1-c1ccccc1 | NOT MET |
| N#Cc1c(N)ncnc1N1CCC[C@H]1c1nn2ccc(Cl)c2c(=O)n1-c1ccccc1 | MET |
| N#Cc1cnc(N)nc1N1CCC[C@H]1c1nn2ccc(F)c2c(=O)n1-c1ccccc1 | NOT MET |
| CC(Nc1ncnc2[nH]cnc12)c1cn2ccc(Cl)c2c(=O)n1-c1cccc(F)c1 (stereo not drawn) | MET |
| N#Cc1ncc(-c2c[nH]c3ncnc(N4CC[C@H]4c4nn5ccc(F)c5c(=O)n4-c4ccccc4)c23)cn1 | MET |
| O=c1c2c(Cl)ccn2nc([C@@H]2CCN2c2ncnc3[nH]cc(C4=NCCO4)c23)n1-c1ccccc1 | NOT MET |
| N#Cc1cnc(N)nc1N1CC(=O)C[C@H]1c1nn2ccc(Cl)c2c(=O)n1-c1ccccc1 | NOT MET |
| C[C@H]1CN(c2ncnc3[nH]cc(C#N)c23)[C@@H]1c1nn2ccc(Cl)c2c(=O)n1-c1ccccn1 | MET |
| C[S@+]([O-])c1c[nH]c2ncnc(N3CCC[C@H]3c3nn4ccc(Cl)c4c(=O)n3-c3cccc(F)c3)c12 (single isomer, unassigned) | NOT MET |
| CC(=O)c1c[nH]c2ncnc(N3CCC[C@H]3c3nn4ccc(Cl)c4c(=O)n3-c3ccccn3)c12 | NOT MET |
| N#Cc1c[nH]c2ncnc(N3C[C@@H](F)C[C@H]3c3nn4ccc(F)c4c(=O)n3-c3ccccc3)c12 | MET |
| Nc1ccc(-c2c[nH]c3ncnc(N4CC[C@H]4c4nn5ccc(Cl)c5c(=O)n4-c4ccccc4)c23)cn1 | NOT MET |
